B1: Adenylate kinase, P16304 (parent)
chain: MNLVLMGLPGAGKGTQGERIVEDYGIPHISTGDMFRAAMKEETPLGLEAKSYIDKGELVPDEVTIGIVKERLGKDDCERGFLLDGFPRTVAQAEALEEILEEYGKPIDYVINIEVDKDVLMERLTGRRICSVCGTTYHLVFNPPKTPGICDKDGGELYQRADDNEETVSKRLEVNMKQTQPLLDFYSEKGYLANVNGQQDIQDVYADVKDLLGGLKK

Variants of: B1
Settings: Bacillus subtilis (strain 168); pH 7; Thermal; CD; KH2PO4 10mM; transition: 2; reversible: yes; structure 2EU8; whole UniProt chain shown
change of melting temperature, mutant - wild type (higher = more stable) values for the variants below.

Example entries and their recorded answers appear below.
[
  {
    "MUTATION_SPEC": "Q199R G213A",
    "RESULT_VALUE": "-10.5 °C"
  },
  {
    "MUTATION_SPEC": "A193V",
    "RESULT_VALUE": "0.5 °C"
  },
  {
    "MUTATION_SPEC": "T179I",
    "RESULT_VALUE": "-0.6 °C"
  },
  {
    "MUTATION_SPEC": "Q199R G214K",
    "RESULT_VALUE": "0 °C"
  },
  {
    "MUTATION_SPEC": "Q199R G214R",
    "RESULT_VALUE": "5 °C"
  },
  {
    "MUTATION_SPEC": "Q199R Q16L",
    "RESULT_VALUE": "14.9 °C"
  }
]

Exercise: Tell me the measured change of melting temperature, mutant - wild type (higher = more stable) of Q199R G213E , please.
Key: 3 °C

Reference source: FireProtDB (doi:10.1016/j.bpj.2010.04.076)
